target: Peroxisome proliferator-activated receptor delta (Homo sapiens); test: qHTS assay to identify small molecule antagonists of the peroxisome proliferator-activated receptor delta (PPARd) signaling pathway (AID 743215); details: HEK293H PPARd-UAS-bla, beta-lactamase FRET ratio, antagonist, 17 h; series mostly up to 62 µM;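 note: cells stimulated with agonist L165041 at 300 nM final during compound exposure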
Records with an inconclusive call do not appear. Active and inactive are the calls of the source. Calls come from the whole dose curve; as a rule, active = well fitted inhibition curve with a large enough effect in the signal ratio in the repeat runs (not every such curve was filed as active); inconclusive = weak or mixed curves, or effect the other way; inactive = no such curve, though single readings can be large or run the other way; the % refers to the signal ratio.
PROPERTY LABEL: outcome

// known answers, use as guide
COMPOUND	PROPERTY LABEL	RESULT
CC(C)C(=O)OC/C=C/c1ccccc1	outcome	inactive
O=C(O)[C@@H]1CSCN1	outcome	inactive
CC(=O)N(CC(O)CN(C(C)=O)c1c(I)c(C(=O)NCC(O)CO)c(I)c(C(=O)NCC(O)CO)c1I)c1c(I)c(C(=O)NCC(O)CO)c(I)c(C(=O)NCC(O)CO)c1I (stereo unspecified)	outcome	inactive
CC1=C(O)C(=O)OC1C (stereo unspecified)	outcome	inactive
CCCCCCCCCC/C=C/C#N	outcome	inactive
CN(CCCN1c2ccccc2CCc2ccccc21)CC(=O)c1ccc(Cl)cc1	outcome	inactive
Nc1cccc(S(=O)(=O)O)c1	outcome	inactive
O=C(O[C@@H](C(=O)O)[C@@H](OC(=O)c1ccccc1)C(=O)O)c1ccccc1	outcome	inactive

(Q) Name the reported outcome value associated with the compound `COc1cc(Cl)ccc1Cl`
(A) inactive

(Q) Name the reported outcome value associated with the compound `NCCC(O)(P(=O)(O)O)P(=O)(O)O`
(A) inactive

(Q) Name the reported outcome value associated with the compound `CCOC(=O)c1ccccc1O`
(A) inactive

(Q) Name the reported outcome value associated with the compound `OCCN1CCN(CCO)CC1`
(A) inactive

(Q) Name the reported outcome value associated with the compound `NNS(=O)(=O)c1ccc(Oc2ccc(S(=O)(=O)NN)cc2)cc1`
(A) inactive

(Q) Name the reported outcome value associated with the compound `Cc1cccc(C)c1NC(=O)CN1CCCCCC1`
(A) inactive

(Q) Name the reported outcome value associated with the compound CC(CNC1CCCCC1)OC(=O)c1ccccc1 (stereo unspecified)
(A) inactive

(Q) Name the reported outcome value associated with the compound `Oc1ccccc1C=NCc1ccccc1`
(A) inactive

(Q) Name the reported outcome value associated with the compound `O=S(=O)(O)C(F)(F)F`
(A) inactive

(Q) Name the reported outcome value associated with the compound `FC(F)(F)c1ccccc1`
(A) inactive

(Q) Name the reported outcome value associated with the compound `CN1CCN(c2c(F)cc3c(=O)c(C(=O)O)cn4c3c2SCC4)CC1`
(A) inactive

(Q) Name the reported outcome value associated with the compound `Nc1ccc(Oc2ccc(N)c(N)c2)cc1`
(A) inactive

(Q) Name the reported outcome value associated with the compound `O=c1[nH]cnc2c1ncn2[C@@H]1O[C@H](CO)[C@@H](O)[C@H]1O`
(A) inactive

(Q) Name the reported outcome value associated with the compound `N#Cc1ccc(C(c2ccc(C#N)cc2)n2cncn2)cc1`
(A) inactive

(Q) Name the reported outcome value associated with the compound `CC(=O)Nc1ccc(C)c(Cl)c1`
(A) inactive

(Q) Name the reported outcome value associated with the compound `Cc1nnc(SCC2=C(C(=O)O)N3C(=O)[C@@H](NC(=O)Cn4cnnn4)[C@H]3SC2)s1`
(A) inactive

(Q) Name the reported outcome value associated with the compound `Cn1cnc2c(F)c(Nc3ccc(Br)cc3Cl)c(C(=O)NOCCO)cc21`
(A) inactive

(Q) Name the reported outcome value associated with the compound `O=C1N(c2ccccc2)c2ccccc2C1(Cc1ccncc1)Cc1ccncc1`
(A) inactive

Recorded values, source PubChem BioAssay (Tox21).
